From: patent EP2934149B1

Parameter 'readout' = pKi; parameter 'system' = soluble human BACE1 catalytic domain (Homo sapiens).
Sequence (P56817 75-416 limits assumed): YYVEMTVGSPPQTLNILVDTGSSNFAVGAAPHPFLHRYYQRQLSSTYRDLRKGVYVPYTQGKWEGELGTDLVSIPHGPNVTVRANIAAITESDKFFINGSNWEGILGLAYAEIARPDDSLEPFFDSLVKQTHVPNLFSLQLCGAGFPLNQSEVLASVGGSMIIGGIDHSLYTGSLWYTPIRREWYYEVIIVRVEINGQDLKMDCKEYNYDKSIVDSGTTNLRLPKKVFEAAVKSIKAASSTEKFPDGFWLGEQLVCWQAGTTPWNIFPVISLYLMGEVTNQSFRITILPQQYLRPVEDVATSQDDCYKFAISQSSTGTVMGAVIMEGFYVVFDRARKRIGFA
pKi: −log10 of the molar value.

compound	pKi
COc1ccc(C(=O)Nc2ccc(F)c([C@@]3(C)NC(=N)N(C)S(=O)(=O)[C@]34CCN(Cc3cocn3)C4)c2)nc1	7.33
CCS(=O)(=O)N1CC[C@@]2(C1)[C@@](C)(c1cc(NC(=O)c3ccc(OC)cn3)ccc1F)NC(=N)N(C)S2(=O)=O	9.00
CN1C(=N)N[C@](C)(c2cc(NC(=O)c3ccc(F)cn3)ccc2F)C2(CCN(Cc3ccccc3)C2)S1(=O)=O (stereo partly shown)	8.47
COc1ccc(C(=O)Nc2ccc(F)c([C@@]3(C)NC(=N)N(C)S(=O)(=O)[C@@]34CCN(S(=O)(=O)CC(C)C)C4)c2)nc1	9.00
CCS(=O)(=O)N1CC[C@]2(C1)[C@@](C)(c1cc(NC(=O)c3ccc(F)cn3)ccc1F)NC(=N)N(C)S2(=O)=O	7.35
CC(C)CS(=O)(=O)N1CC[C@@]2(C1)[C@@](C)(c1cc(NC(=O)c3ccc(F)cn3)ccc1F)NC(=N)N(C)S2(=O)=O	8.70
COC1CC(CN2CC[C@]3(C2)[C@@](C)(c2cc(NC(=O)c4ccc(F)cn4)ccc2F)NC(=N)N(C)S3(=O)=O)C1 (stereo partly shown)	6.92
CN1C(=N)N[C@](C)(c2cc(NC(=O)c3ccc(F)cn3)ccc2F)[C@]2(CCN(S(C)(=O)=O)C2)S1(=O)=O	8.40
CN1C(=N)N[C@](C)(c2cc(NC(=O)c3ccc(F)cn3)ccc2F)[C@]2(CCN(S(=O)(=O)C3CC3)C2)S1(=O)=O	9.00
CN1C(=N)N[C@](C)(c2cc(NC(=O)c3ccc(F)cn3)ccc2F)[C@]2(CCN(Cc3ccccn3)C2)S1(=O)=O	8.52
COCC(=O)Nc1ccc(F)c([C@@]2(C)NC(=N)N(C)S(=O)(=O)[C@@]23CCNC3)c1	5.98
COc1ccc(C(=O)Nc2ccc(F)c([C@@]3(C)NC(=N)N(C)S(=O)(=O)[C@]34CCN(S(=O)(=O)CC(F)(F)F)C4)c2)nc1	7.55
COc1ccc(C(=O)Nc2ccc(F)c([C@@]3(C)NC(=N)N(C)S(=O)(=O)[C@]34CCN(Cc3cnco3)C4)c2)nc1	7.55
